assay: Cell Viability - LYMP2-002 (AID 977); details: LYMP2-002 lymphoblastoid cell viability, qHTS; series mostly up to 92.2 µM;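 further: compound exposure lasted 24 h at 37 °C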
Results filed as inconclusive are left out. Activity calls are given as the source filed them. The call rests on the fitted dose curve; in most records, active means well fitted cell-killing curve with a large enough effect; inconclusive means small, poorly fitted or top-dose-only effect; inactive means flat fitted curve, though single readings scatter.
Your reply should match one of these outcome classes. YES for active, NO for inactive

-- ask For `Cc1nnc(NS(=O)(=O)c2ccc(N)cc2)s1` , which call appears in the assay record?
-- reply NO

-- ask Recorded test call requested for `O=C(O)c1cc(=O)[nH]c(=O)[nH]1`
-- reply NO

-- ask Field: outcome | Entry: `CC[C@H](C)C(=O)O[C@H]1C[C@@H](C)C=C2C=C[C@H](C)[C@H](CC[C@@H]3C[C@@H](O)CC(=O)O3)[C@H]21`
-- reply NO

-- ask Name the outcome recorded for `COc1ccc2cc3[n+](cc2c1OC)CCc1cc2c(cc1-3)OCO2` in the assay.
-- reply NO

New cases:
-- ask Just curious, what result did `CN(C)c1ccc(C(=C2C=CC(=[N+](C)C)C=C2)c2ccc(N(C)C)cc2)cc1` get here?
-- reply YES

-- ask Look up the recorded call for `Cc1cc(NS(=O)(=O)c2ccc(N)cc2)no1` in this test.
-- reply NO

-- ask For `NC(N)=NC(N)=NCCc1ccccc1` , which call appears in the assay record?
-- reply NO

-- ask Could you kindly confirm the outcome this assay logged for `Cc1ccnc2c1NC(=O)c1cccnc1N2C1CC1` ?
-- reply NO

-- ask Assay result, entry `C[C@]12C=CC(=O)C=C1CC[C@@H]1[C@@H]2C(=O)C[C@@]2(C)[C@H]1CC[C@]2(O)C(=O)CO` — outcome?
-- reply NO

Origin of values: PubChem BioAssay (NCATS)
